# Test system: MCF7
# assay-procedure: Antiproliferative activity against human MCF7 cells after 48 hrs by MTT assay
# Format: functional, cell-based
# particulars: MCF7, 48 h
reported-endpoint: IC50 (µM)

// below: answered molecules
[
  {
    "molecule": "Cc1c(C(=O)NCCN2CCN(C)CC2)oc2ccc(N(Cc3ccc(Br)cc3)S(=O)(=O)c3ccc(Br)cc3)cc12",
    "IC50 (µM)": 5.66
  },
  {
    "molecule": "Cc1c(C(=O)OCCCN(C)C)oc2ccc(N(Cc3ccc(Br)cc3)S(=O)(=O)c3ccc(Br)cc3)cc12",
    "IC50 (µM)": 39.7
  },
  {
    "molecule": "Cc1c(C(=O)NCC(O)CO)oc2ccc(N(Cc3ccc(Br)cc3)S(=O)(=O)c3ccc(Br)cc3)cc12 (stereo not drawn)",
    "IC50 (µM)": 36.5
  }
]

[1] Cc1c(C(=O)NCCN2CCOCC2)oc2ccc(N(Cc3ccc(Br)cc3)S(=O)(=O)c3ccc(Br)cc3)cc12
[2] Cc1c(C(=O)NCCN(C)C)oc2ccc(N(Cc3ccc(Br)cc3)S(=O)(=O)c3ccc(Br)cc3)cc12
## Input Could you kindly indicate whether 1 or 2 has the higher IC50 value? The response must carry the label of the picked entry.
## Output 1
(1: 17.2 µM, 2: 3.66 µM)
